Cited source for all entries: the supplement of paper PMC8728848

Experimental system: Gal(b1-3)[Fuc(a1-4)]GlcNAc(b1-2)Man(a1-3)[Gal(b1-3)[Fuc(a1-4)]GlcNAc(b1-2)Man(a1-6)]Man(b1-4)GlcNAc(b1-4)[Fuc(a1-6)]GlcNAc
Method: glycan array binding signal (z-score within array); higher = stronger binding
Reported conditions: glycan notation: IUPAC condensed, linker removed
The full list was thinned out, with the strongest signals kept by preference.
Endpoint name: glycan array binding signal (z-score)
Give bare numbers.

Sample answers from the record:
Binder	glycan array binding signal (z-score)
SCA (Schizophyllum commune) (protein) MGIDQGVYLITNAGSGTAATLKDGYVKGWERIKGKEQLNQLWFVKSVKTSASDPGYAAFNLATNKVLDLEKGLADRGTPILGWDYHEGDNQHWVIKKQADGKYYKIQSVKTQTFVDLNNGGKDNGTKIQGWVGSWDETNSHQRWVFNQFSATGSRIKSILDTHPKIHGKVIVEWPDRIYFTPDQYIFEAIWAKTGLADIKPRDPLFQSEAYEKVFKGWVVSRAQEIIKVDGFDILVGSLSLVEKSTQKIKVLDVSVRTSDDKSPDLSQIVFFDPESGRTLVDIPEGYEVNSVII	-0.054
Layilin (Mus musculus), Q8C351 (protein) MQPGAALQAMLLAVLLAKPRDSKGRLLSASDLDPRGGQLVCRGGTRRPCYKVIYFHDAFQRLNFEEAKETCMEDGGQLVSIETEDEQRLIEKFIENLLASDGDFWIGLKRLEEKQSNNTACQDLYAWTDGSTSQFRNWYVDEPSCGSEVCVVMYHQPSAPPGIGGSYMFQWNDDRCNMKNNFICKYHDDKPSTTPSIWPGGEATEPATPLLPEETQKEDTKETFKERREAALNLAYILIPSIPLFLLLVVTSAVCWVWICRRKREQTDPSTKEQHTIWPTPRQENSPNLDVYNVIRKQSEADLAEPRPDLKNISFRVCSGEAMPDDMSCDYENIAVNPSESGFVTLASMESGFVTNDIYEFSPDRMGRSKESGWVENEIYY	7.71
FGF1 (Homo sapiens), P05230 (protein) MAEGEITTFTALTEKFNLPPGNYKKPKLLYSNGGHFLRILPDGTVDGTRDRSDQHIQLQLSAESVGEVYIKSTETGQYLAMTDGLLYGSQTPNEECLFLERLEENHYNTYISKHAEKNWFVGLKKNGSCKRGPRTHYGQAILFLPLPASSED	3.02
PP2A1 (Arabidopsis thaliana) (protein) MFRNQDSKYLIPVQKEAPPVTTLPMKASTVKSPHNCEAILRDADPPISLSSVNLSEQLRSGVFLKPKKQIKYWVDERNSNCFMLFAKNLSITWSDDVNYWTWFTEKESPNENVEAVGLKNVCWLDITGKFDTRNLTPGIVYEVVFKVKLEDPAYGWDTPVNLKLVLPNGKEKPQEKKVSLRELPRYKWVDVRVGEFVPEKSAAGEITFSMYEHAAGVWKKGLSLKGVAIRPKQHHHHHH	1.34

Look up glycan array binding signal (z-score) for this binder: Microvirin-2 (Microcystis aeruginosa) (protein) MPNFSHTCSSINYDPDSTILSAECQARDGEWLPTELRLSDHIGNIDGELQFGDQNFQETCQDCHLEFGDGEQSVWLVCTCQTMDGEWKSTQILLDSQIDNNDSQLEIGGSMPNFSHTCSSINYDPDSTILSAECQARDGEWLPTELRLSDHIGNIDGELQFGDQNFQETCQDCHLEFGDGEQSVWLVCTCQTMDGEWKSTQILLDSQIDNNDSQLEIG 0.648
